Please respond with reported ALP for every item in the list.
species on record: Rattus norvegicus; test: Open TG-GATES - Regimen: Daily Repeat; type: toxicity, organism-based, Sprague-Dawley; set-up: regimen Daily Repeat, gender Male, age 6 weeks; conditions: in vivo, po, 0 mg/kg, […], tissue Plasma, route gavage, dose level Control, time 28 day
Answers are plain numbers, in IU/L.

Known results for molecules:
Which ALP reading was recorded for the molecule CN(C)[C@@H]1C(O)=C(C(N)=O)C(=O)[C@@]2(O)C(O)=C3C(=O)c4c(O)cccc4[C@@](C)(O)[C@H]3C[C@@H]12 [TETRACYCLINE] ?
807.8

Can you handle C1CCC(C(CC2CCCCN2)C2CCCCC2)CC1 (stereo not given) [PERHEXILINE] next?
1236.4

Quick one: CC(CN1c2ccccc2Sc2ccccc21)N(C)C (stereo not given) [PROMETHAZINE]
1347.2

What would you report for CN1C(C(=O)Nc2ccccn2)=C(O)c2sc(Cl)cc2S1(=O)=O [LORNOXICAM] ?
637.4

For Clc1c(Cl)c(Cl)c(Cl)c(Cl)c1Cl [PERCHLOROBENZENE] then?
643.6

Hey, can you go through the list below and give me ALP for every item?
1. CC(=O)Nc1nnc(S(N)(=O)=O)s1 [ACETAZOLAMIDE]
2. C#C[C@]1(O)CC[C@H]2[C@@H]3CCC4=Cc5oncc5C[C@]4(C)[C@H]3CC[C@@]21C [DANAZOL]
3. CCOC(=O)[C@H](CCc1ccccc1)N[C@@H](C)C(=O)N1CCC[C@H]1C(=O)O

1: 1140.2; 2: 1301.4; 3: 643.2

Give me ALP for each of these molecules, listed below.
1. Cc1cccc(Nc2ccccc2C(=O)O)c1C [MEFENAMIC ACID]
2. O=C(O)Cc1ccccc1Nc1c(Cl)cccc1Cl [DICLOFENAC]

1: 665; 2: 600.6

Cited source: ChEMBL document CHEMBL3885861
